- Tested System: hAR (Homo sapiens, UniProt P10275)
- Construct: expressed in transfected cells; host or cells: CV-1 cells (African green monkey kidney fibroblasts)
- Sequence (P10275 whole entry): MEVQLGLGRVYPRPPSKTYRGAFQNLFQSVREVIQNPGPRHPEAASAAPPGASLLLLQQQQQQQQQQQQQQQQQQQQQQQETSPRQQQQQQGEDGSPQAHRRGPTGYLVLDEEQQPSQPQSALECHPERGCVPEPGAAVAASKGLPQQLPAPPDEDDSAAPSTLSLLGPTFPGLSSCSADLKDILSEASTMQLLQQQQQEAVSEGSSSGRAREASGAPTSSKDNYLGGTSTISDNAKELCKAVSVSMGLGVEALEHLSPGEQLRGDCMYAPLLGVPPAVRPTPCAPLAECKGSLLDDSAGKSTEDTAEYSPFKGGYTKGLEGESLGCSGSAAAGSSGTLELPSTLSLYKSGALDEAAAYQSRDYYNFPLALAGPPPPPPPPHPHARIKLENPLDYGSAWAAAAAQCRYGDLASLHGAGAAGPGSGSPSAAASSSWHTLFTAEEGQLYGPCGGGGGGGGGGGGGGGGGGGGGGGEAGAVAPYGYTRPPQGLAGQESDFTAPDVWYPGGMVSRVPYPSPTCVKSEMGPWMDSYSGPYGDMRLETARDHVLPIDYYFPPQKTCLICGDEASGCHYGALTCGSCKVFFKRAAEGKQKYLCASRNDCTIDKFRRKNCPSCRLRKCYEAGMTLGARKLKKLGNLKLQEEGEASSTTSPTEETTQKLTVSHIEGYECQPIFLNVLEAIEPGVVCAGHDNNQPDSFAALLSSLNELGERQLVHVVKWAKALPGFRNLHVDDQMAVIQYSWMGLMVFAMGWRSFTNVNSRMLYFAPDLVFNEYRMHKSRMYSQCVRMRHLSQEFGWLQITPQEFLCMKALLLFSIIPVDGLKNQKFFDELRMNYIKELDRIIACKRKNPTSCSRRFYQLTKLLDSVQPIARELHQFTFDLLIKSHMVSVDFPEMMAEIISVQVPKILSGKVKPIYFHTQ
- Protocol Text: co-transfection assay, AR agonist, CV-1 cells
- Type: cell-based
- Particulars: AR Agonist CV-1 Cells Potency (nM), hAR in CV-1 cells
Observed Property: EC50 (nM)

- Compound: "CC1COc2cc3[nH]c(=O)cc(C(F)(F)F)c3cc2N1CC(F)(F)F (single isomer, unassigned; (-)) [Compound 125]"
  Observed Property: "EC50"
  Assay Result: 0.7
- Compound: "CC1COc2cc3[nH]c(=O)cc(C(F)(F)F)c3cc2N1CC(F)(F)F (racemic) [Compound 123]"
  Observed Property: "EC50"
  Assay Result: 3.4
- Compound: "CC1COc2cc3[nH]c(=O)cc(C(F)(F)F)c3cc2N1CC(F)(F)F (single isomer, unassigned; (+)) [Compound 124]"
  Observed Property: "EC50"
  Assay Result: 3.6

// data source = patent US6462038B1
